Tested on: hypercholesterolemia golden hamster model
Method Notes: In vivo pharmacodynamic screening in hypercholesterolemia model of golden hamster (plasma TC and LDL-C)
Assay Context: Table 9; 10 mg/kg intragastric, 1 week; plasma
Listing of recorded TC after administration by entry.
Please respond with the number in mmol/L and leave the unit unwritten.

Compound	TC after administration / mmol/L
CC(=O)OC/C(=C\C[C@H]1C(=O)N(c2ccc(F)cc2)[C@@H]1c1ccc(OC(C)=O)cc1)c1ccc(F)cc1 [I-11(Z)]	6.11
CC(=O)Oc1ccc([C@@H]2[C@@H](C/C=C(\CO)c3ccc(F)cc3)C(=O)N2c2ccc(F)cc2)cc1 [I-6(Z)]	5.28
CC(=O)OC/C(=C\C[C@H]1C(=O)N(c2ccc(F)cc2)[C@@H]1c1ccc(OC(=O)c2ccccc2)cc1)c1ccc(F)cc1 [I-16(Z)]	6.0

Turning now to a further record.
Consider the compound O=C(Oc1ccc([C@@H]2[C@@H](C/C=C(\CO)c3ccc(F)cc3)C(=O)N2c2ccc(F)cc2)cc1)c1ccccc1 [I-5(Z)] and give its measured TC after administration. 5.73

* * *

System: hypercholesterolemia golden hamster model
Method Notes: In vivo pharmacodynamic screening in hypercholesterolemia model of golden hamster (plasma TC and LDL-C)
Assay Context: Table 9; 1 mg/kg intragastric, 1 week; plasma
If the reported LDL after administration equals or exceeds 2 mmol/L, assign MET. If not, assign NOT MET.

Compound	Classification
O=C1[C@H](CC[C@H](O)c2ccc(F)cc2)[C@@H](c2ccc(O)cc2)N1c1ccc(F)cc1 [Ezetimibe, reference compound]	NOT MET
CC(=O)OC/C(=C\C[C@H]1C(=O)N(c2ccc(F)cc2)[C@@H]1c1ccc(OC(C)=O)cc1)c1ccc(F)cc1 [I-11(Z)]	NOT MET
O=C(Oc1ccc([C@@H]2[C@@H](C/C=C(\CO)c3ccc(F)cc3)C(=O)N2c2ccc(F)cc2)cc1)c1ccccc1 [I-5(Z)]	MET
CC(=O)OC/C(=C\C[C@H]1C(=O)N(c2ccc(F)cc2)[C@@H]1c1ccc(OC(=O)c2ccccc2)cc1)c1ccc(F)cc1 [I-16(Z)]	MET

Switching to the query record.
Has CC(=O)Oc1ccc([C@@H]2[C@@H](C/C=C(\CO)c3ccc(F)cc3)C(=O)N2c2ccc(F)cc2)cc1 [I-6(Z)] a recorded LDL after administration greater than or equal to 2 mmol/L? NOT MET

* * *

Recorded inhibition in vivo at 1 mg/kg by entry
System: hypercholesterolemia golden hamster model
Method Notes: In vivo pharmacodynamic screening in hypercholesterolemia model of golden hamster (plasma TC and LDL-C)
Assay Context: Mesocricetus auratus, po, 168 h, Table 10; 1 mg/kg; read-out: Reducing LDL-C %
Field format: number, assumed %, no unit text.

A selection of reference data follows.
Compound	Study Target	Experimental Value
O=C1[C@H](CC[C@H](O)c2ccc(F)cc2)[C@@H](c2ccc(O)cc2)N1c1ccc(F)cc1 [Ezetimibe, reference compound]	hypercholesterolemia golden hamster model	68.2
CC(=O)Oc1ccc([C@@H]2[C@@H](C/C=C(\CO)c3ccc(F)cc3)C(=O)N2c2ccc(F)cc2)cc1 [I-6(Z)]	hypercholesterolemia golden hamster model	50.2
O=C(Oc1ccc([C@@H]2[C@@H](C/C=C(\CO)c3ccc(F)cc3)C(=O)N2c2ccc(F)cc2)cc1)c1ccccc1 [I-5(Z)]	hypercholesterolemia golden hamster model	30.7
CC(=O)OC/C(=C\C[C@H]1C(=O)N(c2ccc(F)cc2)[C@@H]1c1ccc(OC(=O)c2ccccc2)cc1)c1ccc(F)cc1 [I-16(Z)]	hypercholesterolemia golden hamster model	31.7

We next turn to a different compound, shown below.
Query: inhibition in vivo at 1 mg/kg; subject: CC(=O)OC/C(=C\C[C@H]1C(=O)N(c2ccc(F)cc2)[C@@H]1c1ccc(OC(C)=O)cc1)c1ccc(F)cc1 [I-11(Z)] 47.7

# credit: patent US8623855B2
